Give measured pIC50 for each item. Keep answers brief.
studyTarget: aryl hydrocarbon receptor (AHR) (Homo sapiens, UniProt P35869)
Sequence (P35869 11-848): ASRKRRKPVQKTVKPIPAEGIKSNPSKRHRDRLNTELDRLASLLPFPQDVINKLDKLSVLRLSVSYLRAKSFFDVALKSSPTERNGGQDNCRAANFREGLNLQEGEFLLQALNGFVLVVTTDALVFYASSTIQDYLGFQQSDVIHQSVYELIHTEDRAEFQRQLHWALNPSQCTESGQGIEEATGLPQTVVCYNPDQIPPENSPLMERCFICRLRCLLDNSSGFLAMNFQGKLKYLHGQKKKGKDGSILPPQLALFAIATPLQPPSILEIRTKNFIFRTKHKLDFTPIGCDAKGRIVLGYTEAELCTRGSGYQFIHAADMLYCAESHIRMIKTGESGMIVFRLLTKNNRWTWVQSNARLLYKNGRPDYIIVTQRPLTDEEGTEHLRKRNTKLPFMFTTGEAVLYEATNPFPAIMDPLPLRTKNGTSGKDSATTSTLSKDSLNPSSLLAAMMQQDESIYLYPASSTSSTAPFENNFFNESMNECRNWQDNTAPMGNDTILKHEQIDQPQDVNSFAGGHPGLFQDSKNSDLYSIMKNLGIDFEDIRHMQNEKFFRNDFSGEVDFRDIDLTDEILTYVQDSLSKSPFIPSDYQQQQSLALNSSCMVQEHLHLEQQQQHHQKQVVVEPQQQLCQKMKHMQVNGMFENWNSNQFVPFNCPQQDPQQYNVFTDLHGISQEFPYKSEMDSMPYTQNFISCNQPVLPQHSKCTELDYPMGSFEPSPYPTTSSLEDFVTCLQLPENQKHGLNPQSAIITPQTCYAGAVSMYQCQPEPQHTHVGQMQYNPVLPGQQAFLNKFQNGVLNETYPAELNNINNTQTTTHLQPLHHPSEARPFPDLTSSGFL
testProtocol: DRE-Luciferase reporter high-throughput screen (AHR antagonist, VAF347-activated)
pIC50: −log10 of the molar value.

# get_value(readout= pIC50, system= aryl hydrocarbon receptor (AHR) (Homo sapiens, UniProt P35869)) for N#Cc1c(-c2ccc(Br)cc2)csc1N1CCCCC1 [150A]
< 5.70

Try this compound next: Cc1ccccc1CS(=O)(=O)N1CCc2ccccc2C1
6.00 to 6.30

Try this compound next: CN(C)c1ccnc2sc(C(=O)c3ccccc3)c(N)c12 [106B]
> 6.70

Try this compound next: c1ccc(-c2cc(-c3cn4cccnc4n3)on2)cc1 [128A]
5.70 to 6.00

Try this compound next: O=C(COc1ccccc1-c1nnc(-c2ccccc2)o1)NCc1ccccn1 [139A]
5.70 to 6.00

Try this compound next: CN(C)c1ccc(-c2nnc(-c3cccs3)o2)cc1
6.00 to 6.30

---

studyTarget: aryl hydrocarbon receptor (AHR) (Homo sapiens, UniProt P35869)
testProtocol: DRE-Luciferase reporter high-throughput screen (AHR antagonist, VAF347-activated)
assayReadout: IC50

Item CC(=O)Oc1ccc2c(=O)c(-c3cnn(-c4ccccc4)c3)coc2c1C [56B] has what recorded IC50?
500 to 1000 nM

Try this compound next: Cc1cc([N+](=O)[O-])c(N)cc1N1CCN(c2ccccc2)CC1 [67A]
1000 to 2000 nM

Try this compound next: COc1ccc(Nc2oc(-c3ccccc3C)nc2C#N)cc1 [78B]
500 to 1000 nM

Try this compound next: COc1ccc(NC(=O)c2nnn(-c3cc(C)cc(C)c3)c2C)c(OC)c1
500 to 1000 nM

Try this compound next: Cc1ccc(Cc2c(C)nc(Nc3nc(C)c4ccc(C)cc4n3)[nH]c2=O)cc1
200 to 500 nM

Try this compound next: C/C(=N\CCc1ccccc1)c1c(C(F)(F)F)[nH]n(-c2nc3ccccc3s2)c1=O [153A]
> 2000 nM

Try this compound next: N#Cc1cc(NCCOCC(F)(F)F)nc2ccc([N+](=O)[O-])cc12 [154A]
> 2000 nM

Try this compound next: O=C(c1csc2nc(-c3ccc(F)cc3)cn12)N1C[C@@H]2CC[C@@H]1C2 [97A]
1000 to 2000 nM

Try this compound next: COc1ccc(C(=O)Nc2ccc3c(c2)oc2ccccc23)cc1[N+](=O)[O-]
< 200 nM

Try this compound next: CSc1ccc(N2C(=O)C3Cc4ccccc4CN3C2=O)cc1 (centres unmarked)
200 to 500 nM

Try this compound next: COc1ccc(NC(=O)c2ccc(C(F)(F)F)[nH]c2=O)cn1 [18A]
> 2000 nM

Try this compound next: O=c1[nH]c2ccccc2nc1NCc1ccc(F)cc1 [168A]
1000 to 2000 nM

Try this compound next: COc1ccc(-c2cc(=O)c3cc(OC(=O)C(C)(C)C)ccc3o2)cc1 [110B]
200 to 500 nM

Try this compound next: Cc1ccc(C(=O)Nc2ccc(Br)c(C)n2)c(Cl)c1
500 to 1000 nM

Try this compound next: COc1ccc(-c2nnc(Nc3ccccc3O)c3ccccc23)cc1
500 to 1000 nM

Try this compound next: CN(CC(=O)NC(=O)Nc1ccccc1)Cc1ccc(Cl)s1
500 to 1000 nM

Try this compound next: O=C(Nc1cc(=O)c2ccccc2o1)c1ccc(Cl)cc1 [45A]
> 2000 nM

Try this compound next: CC(C)(C)c1cc(C(=O)Nc2ccc3c(c2)CCN3S(C)(=O)=O)nc2ncnn12
< 200 nM

Try this compound next: Cc1ccc(NC(=O)c2cn3ccccc3n2)cc1
200 to 500 nM

Try this compound next: Cc1ccc(NC(=O)c2sc3nc(N)c(C#N)cc3c2N)cc1Cl
< 200 nM

Where do these numbers come from? They come from patent US20210220408A1.
